- ASSAY TEXT: Cmax in dog at 0.5 mg/kg, po
- Type: ADME, organism-based, Canis lupus familiaris
- Parameters: dose 0.5 mg/kg, route oral
- DETAILS: in vivo
VALUE KIND: Cmax (ng/mL)
Form entry: value (ng/mL) — number only.

Q: Read off the recorded Cmax for O=C(Nc1cccnn1)N1CCC(=Cc2cccc(Oc3ccc(C(F)(F)F)cn3)c2)CC1
A: 240

---

- TARGET DESC: Fatty-acid amide hydrolase 1 (Homo sapiens)
- ASSAY TEXT: Irreversible inhibition of His-tagged human FAAH N-terminal transmembrane-deleted truncated form expressed in Escherichia coli assessed as ratio of Kinact to Ki by GDH-coupled FAAH assay
Collected log10 Ratio values appear next to each entry.
Hey, these are logged values: log10 of Ratio, M⁻¹ s⁻¹ being the unit before logging.

> print(dat)
                      smiles.representation  measured.number
1  O=C(Nc1cccnn1)N1CCC(=Cc2cccc(Oc3ccc(C4CC4)cn3)c2)CC1             4.46
2  CCOc1ccc(Oc2cccc(C=C3CCN(C(=O)Nc4cccnn4)CC3)c2)nc1             3.97
3  O=C(Nc1ccccn1)N1CCC(=Cc2cccc(Oc3ccc(C(F)(F)F)cn3)c2)CC1             3.78
4  COc1ccc(NC(=O)N2CCC(=Cc3cccc(Oc4ccc(C(F)(F)F)cn4)c3)CC2)cn1             4.20
5  O=C(Nc1cccnc1)N1CC/C(=C\c2cccc(Oc3ccc(C(F)(F)F)cn3)c2)C1             2.16
6  O=C(Nc1ccccc1)N1CCC(=Cc2cccc(Oc3ccc(C(F)(F)F)cn3)c2)CC1             3.68
7  Cc1ccc(NC(=O)N2CCC(=Cc3cccc(Oc4ccc(C(F)(F)F)cn4)c3)CC2)cn1             4.12

Here is another compound to look at.
Q: Send back Fatty-acid amide hydrolase 1 (Homo sapiens) log10 Ratio of Cc1ccc(Oc2cccc(C=C3CCN(C(=O)Nc4cccnn4)CC3)c2)nc1 only.
A: 4.33

Reference source for all entries: ChEMBL document CHEMBL1649098
